measured_on: F508delCFTR (Homo sapiens, UniProt P13569, DEL508-508)
Construct: expressed in transfected cells; host or cells: CFBE4lo-F508delCFTR-HRP cells (human lung derived epithelial cell line, doxycycline-inducible)
Sequence (P13569 with tags, fused parts or gaps DEL508-508): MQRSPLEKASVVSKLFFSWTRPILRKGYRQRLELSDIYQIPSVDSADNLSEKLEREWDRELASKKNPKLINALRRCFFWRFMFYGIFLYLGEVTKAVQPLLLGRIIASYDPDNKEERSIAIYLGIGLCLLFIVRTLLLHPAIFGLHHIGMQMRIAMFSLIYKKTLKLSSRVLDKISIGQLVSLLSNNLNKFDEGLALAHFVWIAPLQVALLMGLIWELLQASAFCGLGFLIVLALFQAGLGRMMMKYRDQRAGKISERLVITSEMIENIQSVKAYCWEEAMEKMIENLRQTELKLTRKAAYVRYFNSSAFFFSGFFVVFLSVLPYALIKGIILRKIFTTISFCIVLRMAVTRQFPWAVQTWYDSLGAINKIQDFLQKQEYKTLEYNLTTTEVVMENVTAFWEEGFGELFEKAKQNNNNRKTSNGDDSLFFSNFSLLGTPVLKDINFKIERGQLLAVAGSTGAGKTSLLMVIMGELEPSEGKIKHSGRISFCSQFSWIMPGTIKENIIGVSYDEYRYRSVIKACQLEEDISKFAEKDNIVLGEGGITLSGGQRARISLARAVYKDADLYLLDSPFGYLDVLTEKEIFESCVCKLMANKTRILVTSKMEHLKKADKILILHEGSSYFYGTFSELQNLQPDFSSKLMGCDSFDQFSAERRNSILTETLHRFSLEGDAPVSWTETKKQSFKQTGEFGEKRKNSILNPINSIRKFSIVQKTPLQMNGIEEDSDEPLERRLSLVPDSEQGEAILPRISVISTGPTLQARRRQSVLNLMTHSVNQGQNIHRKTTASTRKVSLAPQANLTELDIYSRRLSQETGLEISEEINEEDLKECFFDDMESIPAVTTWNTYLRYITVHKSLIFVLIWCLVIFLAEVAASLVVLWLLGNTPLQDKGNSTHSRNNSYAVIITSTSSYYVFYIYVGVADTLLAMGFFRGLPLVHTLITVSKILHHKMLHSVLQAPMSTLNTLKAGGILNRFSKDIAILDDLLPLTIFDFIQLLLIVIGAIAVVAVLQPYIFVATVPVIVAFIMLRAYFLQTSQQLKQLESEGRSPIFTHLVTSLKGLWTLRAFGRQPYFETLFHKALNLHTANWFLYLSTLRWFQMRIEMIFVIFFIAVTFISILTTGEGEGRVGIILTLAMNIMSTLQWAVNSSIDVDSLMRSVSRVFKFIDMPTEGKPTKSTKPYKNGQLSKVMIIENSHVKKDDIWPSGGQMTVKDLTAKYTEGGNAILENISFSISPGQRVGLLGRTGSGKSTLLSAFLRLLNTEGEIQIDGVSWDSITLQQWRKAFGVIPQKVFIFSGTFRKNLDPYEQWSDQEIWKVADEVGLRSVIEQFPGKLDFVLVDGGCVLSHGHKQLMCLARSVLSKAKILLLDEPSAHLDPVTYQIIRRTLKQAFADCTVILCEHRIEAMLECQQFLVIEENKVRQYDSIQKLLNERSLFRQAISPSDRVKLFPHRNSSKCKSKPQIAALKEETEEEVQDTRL
procedure_summary: Cell Surface Expression-Horse Radish Peroxidase (CSE-HRP) Assay
Assay type: cell-based
assay_context: test compound without co-corrector; CFBE4lo-F508delCFTR-HRP cells, 18-24 hours at 33° C., HRP luminescence readout; read-out: EC50 (without co-corrector)
Recorded measurements of EC50, one per entry

Some solved cases for reference:
Name the recorded EC50 of COc1ccc(C2CCC2)c2c1C(C(=O)NS(=O)(=O)c1cccc3c1CCCN3)CCO2 (stereo not shown) , assay system F508delCFTR (Homo sapiens, UniProt P13569, DEL508-508).
< 3 µM

Name the recorded EC50 of Cc1ccccc1S(=O)(=O)NC(=O)C1COc2ccc(Cl)cc21 (stereo not shown) , assay system F508delCFTR (Homo sapiens, UniProt P13569, DEL508-508).
≥ 10 µM

Name the recorded EC50 of "COc1ccc(C2CCC2)c2c1[C@@H](C(=O)NS(=O)(=O)c1cccc3nc(C)ccc13)CCO2" , assay system F508delCFTR (Homo sapiens, UniProt P13569, DEL508-508).
3 to 10 µM

Further cases:
Name the recorded EC50 of COc1c(Br)cc(Br)c2c1C(C(=O)NS(=O)(=O)c1cccc3ccccc13)CCO2 (stereo not shown) , assay system F508delCFTR (Homo sapiens, UniProt P13569, DEL508-508).
3 to 10 µM

====

measured_on: F508delCFTR (Homo sapiens, UniProt P13569, DEL508-508)
Construct: expressed in transfected cells; host or cells: CFBE4lo-F508delCFTR-HRP cells (human lung derived epithelial cell line, doxycycline-inducible)
procedure_summary: Cell Surface Expression-Horse Radish Peroxidase (CSE-HRP) Assay
Format: cell-based
assay_context: with co-corrector 2 μM 3-[(2R,4R)-4-({[1-(2,2-difluoro-1,3-benzodioxol-5-yl)cyclopropyl]carbonyl}amino)-7-methoxy-3,4-dihydro-2H-chromen-2-yl]benzoic acid; CFBE4lo-F508delCFTR-HRP cells, 18-24 hours at 33° C.; read-out: EC50 (with co-corrector)
pEC50: −log10 of the molar value.
Recorded measurements of pEC50, one per entry

Consider the molecule O=C(NS(=O)(=O)c1cccc2ccccc12)C1(c2ccccc2)CCOc2ccc(Cl)cc21 (stereo not shown) . State its measured pEC50.
5.00 to 5.52

Consider the molecule COc1ccc2c(c1)C(C(=O)NS(=O)(=O)c1cccc3ccccc13)(c1ccccc1)CC(C)(C)O2 (stereo not shown) . State its measured pEC50.
> 5.52

Consider the molecule COc1ccc(Br)c2c1C(C(=O)NS(=O)(=O)c1cccc3ccccc13)CO2 (stereo not shown) . State its measured pEC50.
> 5.52

Further cases:
Consider the molecule CCC1(C(=O)NS(=O)(=O)c2cccc3ccccc23)COc2c(C(F)(F)F)cccc21 (stereo not shown) . State its measured pEC50.
5.00 to 5.52

Consider the molecule "COc1ccc(C2CCC2)c2c1[C@H](C(=O)NS(=O)(=O)c1cccc3ccccc13)CCO2" . State its measured pEC50.
> 5.52

Consider the molecule "COc1ccc(C2CCC2)c2c1[C@H](C(=O)NS(=O)(=O)c1cccc3c1CCCN3)CCO2" . State its measured pEC50.
> 5.52

Consider the molecule COc1cccc2c1C(C(=O)NS(=O)(=O)c1cccc3ccccc13)CC(C)(C)O2 (stereo not shown) . State its measured pEC50.
> 5.52

Consider the molecule COc1ccc(C2CCC2)c2c1C(C(=O)NS(=O)(=O)c1cccc3ccccc13)CCO2 (stereo not shown) . State its measured pEC50.
> 5.52

Consider the molecule O=C(NS(=O)(=O)c1cccc2ccccc12)C1(c2ccccc2)CCOc2ccc(Br)cc21 (stereo not shown) . State its measured pEC50.
> 5.52

Consider the molecule "COc1ccc(C2CCC2)c2c1[C@@H](C(=O)NS(=O)(=O)c1cccc3c1CCCN3)CC(C)(C)O2" . State its measured pEC50.
> 5.52

Consider the molecule COc1ccc(Br)c2c1C(C(=O)NS(=O)(=O)c1cccc3ccccc13)CC1(CCCCC1)O2 (stereo not shown) . State its measured pEC50.
> 5.52

Consider the molecule COc1ccc(Br)c2c1C(C(=O)NS(=O)(=O)c1cccc3ccccc13)CC(C)(C)O2 (stereo not shown) . State its measured pEC50.
> 5.52

Consider the molecule Cc1ccccc1S(=O)(=O)NC(=O)C1(C)Cc2ccccc2O1 (stereo not shown) . State its measured pEC50.
≤ 5.00

Consider the molecule O=C(NS(=O)(=O)c1cccc2ccccc12)C1COc2c(Br)cccc21 (stereo not shown) . State its measured pEC50.
5.00 to 5.52

Consider the molecule COc1ccc(OC)c2c1OCC2C(=O)NS(=O)(=O)c1cccc2ccccc12 (stereo not shown) . State its measured pEC50.
5.00 to 5.52

Consider the molecule O=C(NS(=O)(=O)c1cccc2ccccc12)C1(c2ccccc2)C[C@@H](CN2CCCC2)Oc2ccccc21 (stereo partly shown) . State its measured pEC50.
5.00 to 5.52

====

measured_on: F508delCFTR (Homo sapiens, UniProt P13569, DEL508-508)
Construct: expressed in transfected cells; host or cells: CFBE4lo-F508delCFTR-HRP cells (human lung derived epithelial cell line, doxycycline-inducible)
procedure_summary: Cell Surface Expression-Horse Radish Peroxidase (CSE-HRP) Assay
Format: cell-based
assay_context: test compound without co-corrector; maximum at any tested concentration (up to 20 μM), normalized to on-plate positive control (2 μM co-corrector)
reported_property: Emax

Some solved cases for reference:
Consider the compound "COc1ccc(C2CCC2)c2c1[C@@H](C(=O)NS(=O)(=O)c1cccc3ccccc13)CCO2" . State its measured Emax.
≥ 150%

Consider the compound "COc1ccc(C2CCC2)c2c1[C@@H](C(=O)NS(=O)(=O)c1cccc3[nH]ccc13)CCO2" . State its measured Emax.
≥ 150%

Consider the compound O=C(NS(=O)(=O)c1cccc2ccccc12)C1COc2c(Br)cccc21 (centres unmarked) . State its measured Emax.
50 to 150%

Consider the compound "COc1ccc(Br)c2c1[C@@H](C(=O)NS(=O)(=O)c1cccc3cnn(C)c13)CCO2" . State its measured Emax.
50 to 150%

Consider the compound COc1ccc(C2CCC2)c2c1[C@@H](C(=O)NS(=O)(=O)c1cccc3ncccc13)CO2 (single isomer, unassigned) . State its measured Emax.
≥ 150%

Further cases:
Consider the compound COc1ccc(C2CCC2)c2c1C(C(=O)NS(=O)(=O)c1cccc3c1CCCN3)CC(C)(C)O2 (centres unmarked) . State its measured Emax.
≥ 150%

====

measured_on: F508delCFTR (Homo sapiens, UniProt P13569, DEL508-508)
Construct: expressed in transfected cells; host or cells: CFBE4lo-F508delCFTR-HRP cells (human lung derived epithelial cell line, doxycycline-inducible)
procedure_summary: Cell Surface Expression-Horse Radish Peroxidase (CSE-HRP) Assay
Type: cell-based
assay_context: with co-corrector 2 μM 3-[(2R,4R)-4-({[1-(2,2-difluoro-1,3-benzodioxol-5-yl)cyclopropyl]carbonyl}amino)-7-methoxy-3,4-dihydro-2H-chromen-2-yl]benzoic acid; CFBE4lo-F508delCFTR-HRP cells, 18-24 hours at 33° C.; read-out: EC50 (with co-corrector)
reported_property: EC50

Consider the compound COc1cccc2c1CCOC2C(=O)NS(=O)(=O)c1cccc2ccccc12 (stereo not shown) . State its measured EC50.
3 to 10 µM

Consider the compound COc1ccc(C2CCC2)c2c1[C@@H](C(=O)NS(=O)(=O)c1cccc3ncccc13)CO2 (single isomer, unassigned) . State its measured EC50.
3 to 10 µM

Consider the compound "COc1ccc(C2CCC2)c2c1[C@@H](C(=O)NS(=O)(=O)c1cccc3ccccc13)CO2" . State its measured EC50.
< 3 µM

Further cases:
Consider the compound COc1ccc(C2CCC2)c2c1C(C(=O)NS(=O)(=O)c1cccn3nccc13)CO2 (stereo not shown) . State its measured EC50.
< 3 µM

Consider the compound CCC1(C(=O)NS(=O)(=O)c2cccc3ccccc23)COc2c(Cl)cccc21 (stereo not shown) . State its measured EC50.
3 to 10 µM

Consider the compound O=C(NS(=O)(=O)c1cccc2ccccc12)C1CCOc2c(Cl)cccc21 (stereo not shown) . State its measured EC50.
3 to 10 µM

Consider the compound CC(C)c1ccc(S(=O)(=O)NC(=O)C2(C)Cc3ccccc3O2)cc1 (stereo not shown) . State its measured EC50.
≥ 10 µM

Consider the compound COc1ccc(C#N)c2c1C(C(=O)NS(=O)(=O)c1cccc3ccccc13)CC(C)(C)O2 (stereo not shown) . State its measured EC50.
< 3 µM

====

measured_on: F508delCFTR (Homo sapiens, UniProt P13569, DEL508-508)
Construct: expressed in transfected cells; host or cells: CFBE4lo-F508delCFTR-HRP cells (human lung derived epithelial cell line, doxycycline-inducible)
procedure_summary: Cell Surface Expression-Horse Radish Peroxidase (CSE-HRP) Assay
Format: cell-based
assay_context: with co-corrector 2 μM; maximum at any tested concentration (up to 20 μM), normalized to on-plate positive control (2 μM co-corrector)
reported_property: Maximum % activity (with co-corrector)

Name the recorded Maximum % activity (with co-corrector) of COc1ccc(C2CCC2)c2c1[C@H](C(=O)NS(=O)(=O)c1cccc3ncccc13)CO2 (single isomer, unassigned) [Example 83] , assay system F508delCFTR (Homo sapiens, UniProt P13569, DEL508-508).
+++ (≥350)

Name the recorded Maximum % activity (with co-corrector) of COc1cccc2c1C(C(=O)NS(=O)(=O)c1cccc3cccnc13)CC(C)(C)O2 (centres unmarked) [Example 47] , assay system F508delCFTR (Homo sapiens, UniProt P13569, DEL508-508).
++ (≥150 and <350)

Name the recorded Maximum % activity (with co-corrector) of COc1ccc(C2CCC2)c2c1[C@H](C(=O)NS(=O)(=O)c1cccc3c1CCCN3)CO2 [Example 101] , assay system F508delCFTR (Homo sapiens, UniProt P13569, DEL508-508).
+++ (≥350)

Name the recorded Maximum % activity (with co-corrector) of COc1ccc(C2CCC2)c2c1C(C(=O)NS(=O)(=O)c1cccc3ncn(C)c13)CO2 (centres unmarked) [Example 87] , assay system F508delCFTR (Homo sapiens, UniProt P13569, DEL508-508).
+++ (≥350)

Further cases:
Name the recorded Maximum % activity (with co-corrector) of COc1ccc(Br)c2c1[C@@H](C(=O)NS(=O)(=O)c1cccc3ncccc13)CC(C)(C)O2 [Example 71] , assay system F508delCFTR (Homo sapiens, UniProt P13569, DEL508-508).
+++ (≥350)

Name the recorded Maximum % activity (with co-corrector) of CCC1(C(=O)NS(=O)(=O)c2cccc3ccccc23)COc2ccccc21 (centres unmarked) [Example 23] , assay system F508delCFTR (Homo sapiens, UniProt P13569, DEL508-508).
++ (≥150 and <350)

Name the recorded Maximum % activity (with co-corrector) of COc1ccc(C2CCC2)c2c1[C@@H](C(=O)NS(=O)(=O)c1cccc3ncccc13)CO2 (single isomer, unassigned) [Example 82] , assay system F508delCFTR (Homo sapiens, UniProt P13569, DEL508-508).
+++ (≥350)

This collection of values is drawn from patent US10428017B2.
